B1: CPEB3 Ribozyme (parent)
chain: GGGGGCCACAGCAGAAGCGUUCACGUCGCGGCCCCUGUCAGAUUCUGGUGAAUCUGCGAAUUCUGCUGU

Variants of: B1
ASSAY_TEXT: self-cleavage, relative activity (ratio to wild type); higher = more cleavage; co-transcriptional
Records here are stratified by self-cleavage; strata: range 1 = under 0.2, range 2 = from 0.2 up to 0.6, range 3 = 0.6 and over

Answered cases to consult:
A13U U64A: range 3
U20A C39U: range 1
A13C U44A: range 3

In: The entry to classify is U55C C63A ; which class holds it?
Out: range 2

In: Textbook exercise: identify the category of the variant given here, C22U U69A , according to its measured value.
Out: range 2

In: Input G3U G65A ; output its category
Out: range 1

In: Form: Item = C22U C33U ; Class = ?
Out: range 2

In: State the class of the variant shown: G14A G58C
Out: range 3
